Biological target: ligand binding domain of human RORγ (Homo sapiens, UniProt P51449)
Construct: host or cells: HEK293t
Sequence (P51449 269-508 limits assumed): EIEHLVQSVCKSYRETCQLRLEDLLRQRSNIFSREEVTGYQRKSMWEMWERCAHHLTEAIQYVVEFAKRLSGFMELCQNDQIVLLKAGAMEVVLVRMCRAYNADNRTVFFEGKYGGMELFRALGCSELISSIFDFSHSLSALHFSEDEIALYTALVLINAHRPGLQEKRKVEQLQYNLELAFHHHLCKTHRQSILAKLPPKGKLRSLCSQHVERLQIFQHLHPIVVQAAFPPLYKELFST
Experiment: RORγ Reporter Assay (Gal4)
Format: cell-based
Conditions: HEK-293T, 1 μM test compound, HEK293t RORγ reporter cells, 24 hour; read-out: Gal4 activity range @ 1 μM (% inhibition)
Method: The activity of the compounds was evaluated using a Fluorescence Polarization (FP) Assay and, RORγ Reporter assay (also referred to as Gal4 assay). The FP assay is an in vitro assay monitoring binding within the ligand binding pocket. The RORγ and the Th17 assays (another suitable assay) are both cell-based assays monitoring functional activity of the compound assayed. RORγ Reporter Assay (Gal4) […]

{"molecule": "NC(=O)Cc1ccc(CNc2ncnc(N(Cc3ccc(C(F)(F)F)cc3)C3CC3)c2F)cc1 [Example A2]", "inhibition at 1 µM": "> 80%"}
{"molecule": "OC1(CNc2ncnc(N(Cc3ccc(C(F)(F)F)cc3)C3CC3)c2F)CCOC1 (stereo not shown) [Example A5]", "inhibition at 1 µM": "> 80%"}
{"molecule": "CC(C)n1nc(C2CC2)cc1CN(c1ncnc(NCc2ccc(CC(N)=O)cc2)c1F)C1CC1 [Example A90]", "inhibition at 1 µM": "> 0%"}
{"molecule": "CS(=O)(=O)Nc1ncc(CNc2ncnc(N(Cc3ccc(C(F)(F)F)cc3)C3CC3)c2F)cc1F [Example A109]", "inhibition at 1 µM": "> 80%"}
